# test-name: Single ascending dose clinical study in Chinese healthy volunteers (CTR20180791): pharmacokinetics
# Assay type: in vivo, human
# stated-conditions: human, in vivo, oral, 25 mg, 25 mg single dose, fasted, Chinese healthy volunteers
quantity-measured: Cmax (ng/mL)
Numbers only, in ng/mL.

Sure, the documented Cmax for CS(=O)(=O)n1cc2c(n1)CN([C@@H]1C[C@H](N)[C@@H](c3cc(F)ccc3F)O[C@@H]1C(F)(F)F)C2 is 413

---

# test-name: Single ascending dose clinical study in Chinese healthy volunteers (CTR20180791): pharmacokinetics
# Format: in vivo, human
# stated-conditions: human, in vivo, oral, 10 mg, 10 mg single dose, fasted, Chinese healthy volunteers; read-out: CL Obs (converted)
quantity-measured: clearance (mL/min)
Numbers only, in mL/min.

Sure, the documented clearance for CS(=O)(=O)n1cc2c(n1)CN([C@@H]1C[C@H](N)[C@@H](c3cc(F)ccc3F)O[C@@H]1C(F)(F)F)C2 is 9.67
